- system name: full-length beta-Catenin (Uniprot ID P35222) (Homo sapiens, UniProt P35222)
- Construct: 10 nM full-length beta-Catenin (Uniprot ID P35222)
- Sequence (P35222 1-781): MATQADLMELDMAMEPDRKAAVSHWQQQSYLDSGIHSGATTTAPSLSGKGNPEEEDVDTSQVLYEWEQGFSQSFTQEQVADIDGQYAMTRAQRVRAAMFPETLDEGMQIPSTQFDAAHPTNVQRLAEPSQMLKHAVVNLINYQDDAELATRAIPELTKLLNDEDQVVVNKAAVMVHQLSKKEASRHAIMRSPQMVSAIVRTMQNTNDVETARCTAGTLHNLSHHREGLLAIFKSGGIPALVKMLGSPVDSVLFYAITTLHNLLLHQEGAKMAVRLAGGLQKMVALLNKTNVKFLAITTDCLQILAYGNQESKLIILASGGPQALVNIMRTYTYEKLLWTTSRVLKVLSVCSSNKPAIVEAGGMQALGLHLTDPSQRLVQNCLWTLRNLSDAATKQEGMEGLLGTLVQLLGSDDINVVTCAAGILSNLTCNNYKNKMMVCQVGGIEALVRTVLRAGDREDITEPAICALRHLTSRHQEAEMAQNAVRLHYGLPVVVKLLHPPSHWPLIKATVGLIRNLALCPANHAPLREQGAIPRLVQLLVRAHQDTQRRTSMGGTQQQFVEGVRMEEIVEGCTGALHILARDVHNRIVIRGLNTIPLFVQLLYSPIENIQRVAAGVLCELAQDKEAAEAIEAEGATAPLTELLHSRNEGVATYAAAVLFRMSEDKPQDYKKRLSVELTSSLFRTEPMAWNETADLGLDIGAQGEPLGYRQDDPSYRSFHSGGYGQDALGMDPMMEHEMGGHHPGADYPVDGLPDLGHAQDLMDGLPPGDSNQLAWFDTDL
- method notes: Fluorescence polarization IC50 (beta-catenin / 5FAM-TCF4 10-53 competition)
- Type: binding
- experimental conditions: fluorescence polarization; read-out: beta-Catenin FP IC50
pIC50: −log10 of the molar value.
Threshold rule: pIC50 greater than or equal to 8 is class 1; below that, class 0.

compound	system name	cat
CC(=O)N1CCC[C@]12CC=CCCCC1(CCCC=CCCCOC(=O)N3CC[C@@](C(=O)N[C@@H](Cc4ccsc4)C(=O)N[C@@H](Cc4csc5ccccc45)C(=O)N[C@@H](CCC(N)=O)C(N)=O)(C3)NC(=O)[C@H](CC(C)C)NC(=O)[C@H](Cc3ccccc3)NC(=O)[C@H](C)NC(=O)[C@H](C)NC(=O)[C@H]([C@@H](C)O)NC(=O)[C@H](CC(=O)O)NC1=O)NC(=O)[C@H](CC(C)(C)C)NC(=O)[C@H](CC(=O)O)NC2=O (stereo partly drawn) [I-1167]	full-length beta-Catenin (Uniprot ID P35222) (Homo sapiens, UniProt P35222)	class 0
CC(=O)N1CCC[C@]12CC=CCCCC1(CCCC=CCCCOC(=O)N3CC[C@@](C(=O)N[C@@H](Cc4cccc(C(N)=O)c4)C(=O)N[C@@H](Cc4csc5ccccc45)C(=O)N[C@@H](CCC(N)=O)C(N)=O)(C3)NC(=O)[C@H](CC(N)=O)NC(=O)[C@H](Cc3ccccc3)NC(=O)[C@H](C)NC(=O)[C@H](CCCCNC(C)C)NC(=O)[C@H](CCC(N)=O)NC(=O)[C@H](CC(=O)O)NC1=O)NC(=O)[C@H](CC1CCCCC1)NC(=O)[C@H](CC(N)=O)NC2=O (stereo partly drawn) [I-2164]	full-length beta-Catenin (Uniprot ID P35222) (Homo sapiens, UniProt P35222)	class 0
CC[C@H](C)[C@@H]1NC(=O)[C@H](CC(=O)O)NC(=O)[C@]2(CC=CCCCC3(CCCC=CCCCCCC[C@@](C)(C(=O)N[C@@H](Cc4ccccc4)C(=O)N[C@@H](Cc4csc5ccccc45)C(=O)N[C@@H](CCC(N)=O)C(N)=O)NC(=O)[C@H](CCC(N)=O)NC(=O)[C@H](Cc4ccccc4)NC(=O)[C@H](CC(C)C)NC(=O)[C@H](C)NC(=O)[C@H](CCC(=O)O)NC(=O)[C@H](CC(=O)O)NC3=O)NC1=O)CCCN2C(C)=O (stereo partly drawn) [I-659]	full-length beta-Catenin (Uniprot ID P35222) (Homo sapiens, UniProt P35222)	class 0
CC(=O)N1CCC[C@]12CC=CCCCC1(CCCC=CCCCOC(=O)N3CC[C@@](C(=O)N[C@@H](Cc4ccccc4C(F)(F)F)C(=O)N[C@@H](Cc4csc5ccccc45)C(=O)N[C@@H](CO)C(N)=O)(C3)NC(=O)[C@H](CC(C)C)NC(=O)[C@H](Cc3ccccc3)NC(=O)[C@H](C)NC(=O)[C@H](C)NC(=O)[C@H](Cn3cc(CC(=O)O)nn3)NC(=O)[C@H](CC(=O)O)NC1=O)NC(=O)[C@H](CC(C)(C)C)NC(=O)[C@H](CC(=O)O)NC2=O (stereo partly drawn) [I-2373]	full-length beta-Catenin (Uniprot ID P35222) (Homo sapiens, UniProt P35222)	class 1
CC(=O)N1CCC[C@]12CC=CCCCC1(CCCC=CCCCCCC[C@@](C)(C(=O)N[C@@H](Cc3ccccc3)C(=O)N[C@@H](Cc3csc4ccccc34)C(=O)N[C@H](C(N)=O)[C@@H](C)O)NC(=O)[C@H](CC(N)=O)NC(=O)[C@H](Cc3ccccc3)NC(=O)[C@H](C)NC(=O)[C@H](C)NC(=O)[C@H](CCC(=O)O)NC(=O)[C@H](CC(=O)O)NC1=O)NC(=O)[C@H](CC(C)C)NC(=O)[C@H](CC(=O)O)NC2=O (stereo partly drawn) [I-748]	full-length beta-Catenin (Uniprot ID P35222) (Homo sapiens, UniProt P35222)	class 0

---

- system name: beta-catenin/TCF4 engagement (Homo sapiens, UniProt P35222)
- Construct: expressed in transfected cells; host or cells: HEK293
- method notes: Nano-BRET target engagement assay (B-cat-Halo & TCF4-Luc in HEK293 cells)
- Format: cell-based
- experimental conditions: absolute IC50; read-out: NanoBRET Abs IC50

molecule	IC50 / µM
CC(=O)N1CCC[C@]12CC=CCCCC1(CCCC=CCCCOC(=O)N3CC[C@@](C(=O)N[C@@H](Cc4ccccc4C(F)(F)F)C(=O)N[C@@H](Cc4csc5ccccc45)C(=O)N[C@@H](CCC(N)=O)C(N)=O)(C3)NC(=O)[C@H](CC(C)C)NC(=O)[C@H](Cc3ccccc3)NC(=O)[C@H](C)NC(=O)[C@H](C)NC(=O)[C@H](CN(CC(=O)O)CC(F)(F)F)NC(=O)[C@H](CC(=O)O)NC1=O)NC(=O)[C@H](CC(C)(C)C)NC(=O)[C@H](CC(=O)O)NC2=O (stereo partly shown)	5.3

---

Reported chromatographic logD values for a set of compounds
- method notes: CHI Log D procedure
- Format: physicochemical
- experimental conditions: pH 7.4, CHI Log D

compound	chromatographic logD
CC(=O)N1CCC[C@]12CC=CCCCC1(CCCC=CCCCCCC[C@@](C)(C(=O)N[C@@H](Cc3ccccc3Cl)C(=O)N[C@@H](Cc3csc4ccccc34)C(=O)N[C@@H](C(N)=O)[C@H](C)O)NC(=O)[C@H](CC(C)C)NC(=O)[C@H](Cc3ccccc3)NC(=O)[C@H](C)NC(=O)[C@H](C)NC(=O)[C@H](CCC(=O)O)NC(=O)[C@H](CC(=O)O)NC1=O)NC(=O)[C@H](CC(C)(C)C)NC(=O)[C@H](CC(=O)O)NC2=O (some centres unmarked)	3.54
CC(=O)N1CCC[C@]12CC=CCCCC1(CCCC=CCCCOC(=O)N3CC[C@@](C(=O)N[C@@H](Cc4ccsc4)C(=O)N[C@@H](Cc4csc5ccccc45)C(=O)N[C@@H](CCC(N)=O)C(=O)N[C@@H](CCCCNC(=O)C4CCN(C5CCN(C)CC5)CC4)C(N)=O)(C3)NC(=O)[C@H](CC(N)=O)NC(=O)[C@H](Cc3ccccc3)NC(=O)[C@H](C)NC(=O)[C@H](C)NC(=O)[C@H](CC(=O)O)NC(=O)[C@H](CC(=O)O)NC1=O)NC(=O)[C@H](CC(C)(C)C)NC(=O)[C@H](CC(=O)O)NC2=O (some centres unmarked)	1.8
CC(=O)N1CCC[C@]12CC=CCCCC1(CCCC=CCCCOC(=O)N3CC[C@@](C(=O)N[C@@H](Cc4ccsc4)C(=O)N[C@@H](Cc4csc5ccccc45)C(=O)N[C@@H](CCC(N)=O)C(N)=O)(C3)NC(=O)[C@H](CC(N)=O)NC(=O)[C@H](Cc3ccccc3)NC(=O)[C@H](CCCCNC(=O)CCc3cc(C(F)(F)F)cc(C(F)(F)F)c3)NC(=O)[C@H](C)NC(=O)[C@H](CC(=O)O)NC(=O)[C@H](CC(=O)O)NC1=O)NC(=O)[C@H](CC(C)(C)C)NC(=O)[C@H](CC(=O)O)NC2=O (some centres unmarked)	2.4
C#CCOCCOCCOCCC(=O)NCCCC[C@H](NC(=O)[C@H](CCC(N)=O)NC(=O)[C@H](Cc1csc2ccccc12)NC(=O)[C@H](Cc1ccsc1)NC(=O)[C@]12CCN(C1)C(=O)OCCCC=CCCCC1(CCCC=CC[C@]3(CCCN3C(C)=O)C(=O)N[C@@H](CC(=O)O)C(=O)N[C@@H](CC(C)(C)C)C(=O)N1)C(=O)N[C@@H](CC(=O)O)C(=O)N[C@@H](CC(=O)O)C(=O)N[C@@H](C)C(=O)N[C@@H](C)C(=O)N[C@@H](Cc1ccccc1)C(=O)N[C@@H](CC(N)=O)C(=O)N2)C(N)=O (some centres unmarked)	1.94
CC[C@H](C)[C@@H]1NC(=O)[C@H](CC(=O)O)NC(=O)[C@]2(CC=CCCCC3(CCCC=CCCCCCC[C@@](C)(C(=O)N[C@@H](Cc4ccccc4)C(=O)N[C@@H](Cc4c[nH]c5ccccc45)C(=O)N[C@@H](C)C(N)=O)NC(=O)[C@H](CCC(N)=O)NC(=O)[C@H](Cc4ccccc4)NC(=O)[C@H](C)NC(=O)[C@H](C)NC(=O)[C@H](CCC(=O)O)NC(=O)[C@H](CC(=O)O)NC3=O)NC1=O)CCCN2C(C)=O (some centres unmarked)	2.33

Provenance of the data: patent US20240116985A1
